Assignment: determine reported TGI for the given compounds.
System: EKVX NSCLC
Assay: NCI tumour cell line growth inhibition, 48 h

Data request: Input CCOC(=O)c1ccc(Nc2nc3ccc(C(F)(F)F)cc3nc2C(=O)OCC)cc1 , output reported TGI.
Data returned: > 100 µM

Data request: Provide measured TGI value, entry: O=c1c2ccccc2sc2ccccc12
Data returned: > 100 µM

Data request: Query TGI for CON(C)C(=O)C1CCCO1 (stereo not given)
Data returned: > 100 µM

Data request: Provide only the value of recorded TGI for Clc1nncc2sc(-c3ccccc3)nc12
Data returned: 12.5 µM

Data request: Note TGI for the compound shown: Cc1cc2c(cc1Cl)S/C(=C/C(=O)O)C(Nc1cccc3nsnc13)=NS2(=O)=O
Data returned: > 19.9 µM

* * *

Assignment: determine reported TGI for the given molecules.
Tested on: NCI-H226 lung
Experiment: NCI tumour cell line growth inhibition, 48 h

Data request: Consider the molecule C=C1C2Oc3ccccc3C1N(c1ccccc1)O2 (centres undefined) and give its recorded TGI.
Data returned: > 100 µM

Data request: // Input: c1ccc([P+](CCCCCCCC[P+](c2ccccc2)(c2ccccc2)c2ccccc2)(c2ccccc2)c2ccccc2)cc1 . Output its TGI only.
Data returned: > 100 µM

Data request: Determine from records and report TGI for Cc1cc(C)n(C2=NS(=O)(=O)c3ccccc3N2C)n1
Data returned: > 100 µM

Data request: Fill in reported TGI for this entry: O=C(OCC1OC(n2nc(Cn3nnc(-c4cccnc4)n3)n(-c3cccc4ccccc34)c2=S)C(OC(=O)c2ccccc2)C1OC(=O)c1ccccc1)c1ccccc1 (centres undefined)
Data returned: > 100 µM

Data request: Look up and report measured TGI for this entry: CC(C)=CCC[C@@H](C)C1=C(O)C(N)=C(C)C(=O)C1=O
Data returned: > 100 µM

Data request: Consider the molecule O=C1C2=Nc3ccccc3C(O)(C(=O)O)N2c2ccccc21 (centres undefined) and give its recorded TGI.
Data returned: > 100 µM

Data request: Please indicate TGI recorded for Cc1cc2c(cc1Cl)S/C(=C/C(=O)O)C(Nc1cccc3nsnc13)=NS2(=O)=O
Data returned: > 68 µM

Data request: Name the recorded TGI of the item O=[N+]([O-])c1cc(Cl)ccc1Sc1ccccc1 in your answer.
Data returned: > 100 µM

Data request: Give recorded TGI. COC(=O)c1ccc2c(c1)C(=O)c1c-2n(CCCN=[N+]=[N-])c(=O)c2cc([N+](=O)[O-])ccc12
Data returned: > 100 µM

Data request: Quote TGI reported for CC#CC(O)(C(=O)OC1CC(C)N(C)C(C)(C)C1)C1CCCC1 (centres undefined) please.
Data returned: > 100 µM

Data request: Look up and report measured TGI for this entry: CC1(C)CC(=O)C(CC2C(=O)c3ccccc3C2=O)C(=O)C1
Data returned: > 100 µM

Data request: Assign TGI to the following record: CCOC(=O)c1c(SCCN2CCOCC2)n(-c2ccccc2)c(=S)n(-c2ccccc2)c1=O
Data returned: > 100 µM

Data request: Fill in TGI for record O=C1c2ccccc2-c2c1c1c(NCCCO)nc3ccccc3c1n2Cc1ccccc1
Data returned: > 100 µM

Data request: Supply measured TGI of O=S1(=O)C[C@@H](NCc2ccccc2)[C@H](NCc2ccccc2)C1 in your reply.
Data returned: > 100 µM

Data request: Give reported TGI value for COc1ccc(N2C(=O)C3c4[nH]c5ccccc5c4C4CCCCCCCCCC4C3C2=O)cc1 (centres undefined)
Data returned: > 10 µM

Data request: Using the record for O=C(O)CCCCCCCCC(=O)O , state its measured TGI.
Data returned: > 500 µM

Data request: Give a short answer stating reported TGI for O=C(Cl)C1=C(c2ccccc2)C1c1ccccc1 (centres undefined) .
Data returned: > 100 µM

Data request: Name the recorded TGI of the molecule listed here: O=C(CC(C(=O)c1ccco1)c1ccco1)c1ccco1 (centres undefined)
Data returned: > 100 µM

Data request: Output measured TGI for this item: COc1cc(C(O)c2ccc3c(c2)OCO3)cc(OC)c1OC (centres undefined)
Data returned: > 100 µM

Data request: Specify reported TGI for the molecule shown: Cc1ccc(NC(=O)/C(Cc2cc(=O)oc3cc(O)ccc23)=N\NC(=O)C[N+](C)(C)C)cc1C
Data returned: > 100 µM

Data request: Report measured TGI; entry is Cn1c(=O)nc2n(-c3ccc(Cl)c(C(F)(F)F)c3)c3ccccc3nc-2c1=O
Data returned: > 100 µM

Data request: Note TGI for the molecule shown: CC1c2ccccc2N=C2SC(=S)N3CCN=C3N21 (centres undefined)
Data returned: > 100 µM

Data request: Retrieve TGI measured for Cc1cc(C)nc(NS(=O)(=O)c2ccc(NC(=O)c3cccc4c(NNc5ccc(S(=O)(=O)N=C(N)N)cc5)c5ccccc5nc34)cc2)n1 and print it.
Data returned: > 50 µM

Data request: Output measured TGI for this item: COc1c(O)c(OC)c2oc(-c3ccc(O)cc3)c(OC)c(=O)c2c1O
Data returned: > 100 µM

* * *

Tested on: LOX IMVI melanoma
Assay: NCI tumour cell line growth inhibition, 48 h
quantityName: TGI

Data request: Annotate the molecule C[C@H]1[C@H](C)CC[C@]2(C(=O)OC3OC(CO)C(O)C(O)C3O)CC[C@]3(C)C(=CC[C@@H]4[C@@]5(C)C[C@H]6OC(=O)c7cc(O)c(O)c(O)c7-c7c(cc(O)c(O)c7O)C(=O)O[C@@H]6C(CO)(CO)[C@@H]5CC[C@]43C)[C@H]12 (stereo partly specified) with its measured TGI.
Data returned: 34.5 µM

Data request: Check the records and state TGI for COC(=O)C1(O)C(c2ccccc2)=NC2(C)CCCC21 (stereo unspecified)
Data returned: > 100 µM

Data request: State its TGI for this molecule: CC1(C)OC2COC3([C@@H]4OC(C)(C)O[C@@H]4CO)OC(C)(C)OC3C2O1 (stereo partly specified)
Data returned: > 100 µM

Data request: Give me measured TGI, please, for this molecule: [2H]c1nc(=Nc2cc(NC(=O)C=C)c(N(C)CCN(C)C)cc2OC)[nH]c(-c2cn(C([2H])([2H])[2H])c3ccccc23)c1[2H]
Data returned: 3.17 µM

Data request: Answer with the recorded TGI of Cc1ccc(C)c(N2C(=O)C(=O)C(c3nc4ccccc4s3)C(=Nc3cccc4c(=O)[nH][nH]c(=O)c34)C2=O)c1 (stereo unspecified) only.
Data returned: > 100 µM

Data request: Return TGI (reported value) for this molecule: Cc1ccc(NC(=O)/C(Cc2nc3ccc([N+](=O)[O-])cc3[nH]c2=O)=N\NC(=O)C[n+]2ccccc2)c(C)c1
Data returned: > 100 µM

* * *

Tested on: HCC-2998 colon
Assay: NCI tumour cell line growth inhibition, 48 h
quantityName: TGI

Data request: Respond only with TGI recorded for COC(=O)C1(O)C(c2ccccc2)=NC2(C)CCCC21 (stereo not drawn)
Data returned: > 100 µM

Data request: Please give the documented TGI of Cc1ccc(NC(=O)/C(Cc2nc3ccc([N+](=O)[O-])cc3[nH]c2=O)=N\NC(=O)C[n+]2ccccc2)c(C)c1
Data returned: > 100 µM

Data request: Tell me measured TGI for CC1(C)N=C2C(=O)c3c([nH]c4ccccc34)[C@]3(C)CCC1CC23 (stereo partly drawn) please.
Data returned: > 6.25 µM

Data request: Determine its reported TGI: CC(C)Oc1ccc(C(=O)Cn2ccnc2)cc1-n1c(CN2CCN(C(=O)COc3ccc(Cl)cc3)CC2)nc2ccccc2c1=O
Data returned: 31 µM

Data request: Provide only the value of recorded TGI for c1ccc([P+](CCCCCCCC[P+](c2ccccc2)(c2ccccc2)c2ccccc2)(c2ccccc2)c2ccccc2)cc1
Data returned: > 100 µM

Data request: // Input: [2H]c1nc(=Nc2cc(NC(=O)C=C)c(N(C)CCN(C)C)cc2OC)[nH]c(-c2cn(C([2H])([2H])[2H])c3ccccc23)c1[2H] . Output its TGI only.
Data returned: 2.8 µM

Data request: Please look at this compound and report its TGI: COC(=O)C1C(=O)N(CCc2c[nH]c3ccccc23)C[C@@H]2CCC(=O)C[C@H]12 (stereo partly drawn)
Data returned: > 100 µM

Data request: Look up and report measured TGI for this entry: CCOC(=O)c1ccc(Nc2nc3ccc(C(F)(F)F)cc3nc2C(=O)OCC)cc1
Data returned: > 100 µM

* * *

Test system: RXF 393 renal
Assay: NCI tumour cell line growth inhibition, 48 h
quantityName: TGI

Data request: For the molecule O=C1c2ccccc2-c2c1c1ccccc1c(=O)n2CCNCCn1c2c(c3ccccc3c1=O)C(=O)c1ccccc1-2 , give its measured TGI value.
Data returned: > 25 µM

Data request: Report TGI for Cc1cccc(N=Nc2ccc(N=Nc3c(O)ccc4ccccc34)cc2C)c1
Data returned: > 100 µM

Data request: Provide one value: measured TGI of Cc1cccc(/C(Br)=C2/OC(=O)c3ccccc32)c1
Data returned: > 100 µM

Data request: For the molecule c1ccc2[nH]c(CNc3ccc(C4C[Se]N=N4)cc3)nc2c1 (centres undefined) , report TGI.
Data returned: > 100 µM
